tested on: A549 cells (human Non Small Cell Lung Cancer); assay: cytotoxicity assay with A549 cells using standard Alamar Blue Assay; conditions: Homo sapiens, A549, read-out: EC50 (cell vitality)

{"smiles text": "N[C@@H](C[C@H](CCCF)C(=O)O)C(=O)O", "EC50": "~38 µM"}

These entries and their values trace back to patent US20140227191A1.
